biological target: type L calcium channels; experiment: Binding: displacement of [3H] D888 at the Ca2+ channel; conditions: read-out: K0.5 (50% of specifically fixed radioactivity displaced)
Counter-ions that a name gives are not always drawn.
Recorded IC50, one value per entry.

MOLECULE: COc1ccc(CN2CCNCC2)c(OC)c1OC [Trimetazidine, 2 HCl, trimetazidine dihydrochloride, reference compound]
OPERATOR_SYMBOL: >
IC50 (µM): 100

MOLECULE: COc1cccc(CCN(C)CCCC(C#N)(c2ccc(OC)c(OC)c2)C(C)C)c1 (stereo not drawn) [Example D888, reference compound]
OPERATOR_SYMBOL: =
IC50 (µM): 0.0025

MOLECULE: COc1ccc(CSC2CCN(CC=Cc3ccccc3)CC2)c(OC)c1OC
OPERATOR_SYMBOL: =
IC50 (µM): 1.3

###

target: Dopamine D2 (Homo sapiens, UniProt P14416); assay: Binding to neurotransmitter receptors: D2 ([3H] 205 501); conditions: read-out: K0.5
Sequence (P14416 whole entry): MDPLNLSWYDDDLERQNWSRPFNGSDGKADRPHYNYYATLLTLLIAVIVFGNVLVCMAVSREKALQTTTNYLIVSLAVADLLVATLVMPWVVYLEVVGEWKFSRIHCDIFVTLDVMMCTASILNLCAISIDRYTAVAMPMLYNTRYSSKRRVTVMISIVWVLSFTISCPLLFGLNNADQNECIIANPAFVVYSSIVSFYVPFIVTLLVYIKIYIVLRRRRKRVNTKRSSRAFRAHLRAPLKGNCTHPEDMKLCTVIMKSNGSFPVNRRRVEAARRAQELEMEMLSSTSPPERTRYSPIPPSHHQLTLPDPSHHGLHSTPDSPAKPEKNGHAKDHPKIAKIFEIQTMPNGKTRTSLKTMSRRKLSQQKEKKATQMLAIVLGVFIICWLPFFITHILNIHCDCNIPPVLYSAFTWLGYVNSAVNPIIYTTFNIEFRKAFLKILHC
pIC50: −log10 of the molar value.
QUANTITY_NAME: pIC50

CHEMICAL_STRING: COc1ccc(CSC2CCN(CC=Cc3ccccc3)CC2)c(OC)c1OC
QUANTITY_NAME: pIC50
RECORDED_RESULT: 6.52

###

target: type L calcium channels (Oryctolagus cuniculus, UniProt P07293); construct: microsomal fractions enriched with type L calcium channels; from tissue; host or cells: microsomal fractions; test: Binding: displacement of [3H] PN 200-110 at the Ca2+ channel
Sequence (P07293 whole entry): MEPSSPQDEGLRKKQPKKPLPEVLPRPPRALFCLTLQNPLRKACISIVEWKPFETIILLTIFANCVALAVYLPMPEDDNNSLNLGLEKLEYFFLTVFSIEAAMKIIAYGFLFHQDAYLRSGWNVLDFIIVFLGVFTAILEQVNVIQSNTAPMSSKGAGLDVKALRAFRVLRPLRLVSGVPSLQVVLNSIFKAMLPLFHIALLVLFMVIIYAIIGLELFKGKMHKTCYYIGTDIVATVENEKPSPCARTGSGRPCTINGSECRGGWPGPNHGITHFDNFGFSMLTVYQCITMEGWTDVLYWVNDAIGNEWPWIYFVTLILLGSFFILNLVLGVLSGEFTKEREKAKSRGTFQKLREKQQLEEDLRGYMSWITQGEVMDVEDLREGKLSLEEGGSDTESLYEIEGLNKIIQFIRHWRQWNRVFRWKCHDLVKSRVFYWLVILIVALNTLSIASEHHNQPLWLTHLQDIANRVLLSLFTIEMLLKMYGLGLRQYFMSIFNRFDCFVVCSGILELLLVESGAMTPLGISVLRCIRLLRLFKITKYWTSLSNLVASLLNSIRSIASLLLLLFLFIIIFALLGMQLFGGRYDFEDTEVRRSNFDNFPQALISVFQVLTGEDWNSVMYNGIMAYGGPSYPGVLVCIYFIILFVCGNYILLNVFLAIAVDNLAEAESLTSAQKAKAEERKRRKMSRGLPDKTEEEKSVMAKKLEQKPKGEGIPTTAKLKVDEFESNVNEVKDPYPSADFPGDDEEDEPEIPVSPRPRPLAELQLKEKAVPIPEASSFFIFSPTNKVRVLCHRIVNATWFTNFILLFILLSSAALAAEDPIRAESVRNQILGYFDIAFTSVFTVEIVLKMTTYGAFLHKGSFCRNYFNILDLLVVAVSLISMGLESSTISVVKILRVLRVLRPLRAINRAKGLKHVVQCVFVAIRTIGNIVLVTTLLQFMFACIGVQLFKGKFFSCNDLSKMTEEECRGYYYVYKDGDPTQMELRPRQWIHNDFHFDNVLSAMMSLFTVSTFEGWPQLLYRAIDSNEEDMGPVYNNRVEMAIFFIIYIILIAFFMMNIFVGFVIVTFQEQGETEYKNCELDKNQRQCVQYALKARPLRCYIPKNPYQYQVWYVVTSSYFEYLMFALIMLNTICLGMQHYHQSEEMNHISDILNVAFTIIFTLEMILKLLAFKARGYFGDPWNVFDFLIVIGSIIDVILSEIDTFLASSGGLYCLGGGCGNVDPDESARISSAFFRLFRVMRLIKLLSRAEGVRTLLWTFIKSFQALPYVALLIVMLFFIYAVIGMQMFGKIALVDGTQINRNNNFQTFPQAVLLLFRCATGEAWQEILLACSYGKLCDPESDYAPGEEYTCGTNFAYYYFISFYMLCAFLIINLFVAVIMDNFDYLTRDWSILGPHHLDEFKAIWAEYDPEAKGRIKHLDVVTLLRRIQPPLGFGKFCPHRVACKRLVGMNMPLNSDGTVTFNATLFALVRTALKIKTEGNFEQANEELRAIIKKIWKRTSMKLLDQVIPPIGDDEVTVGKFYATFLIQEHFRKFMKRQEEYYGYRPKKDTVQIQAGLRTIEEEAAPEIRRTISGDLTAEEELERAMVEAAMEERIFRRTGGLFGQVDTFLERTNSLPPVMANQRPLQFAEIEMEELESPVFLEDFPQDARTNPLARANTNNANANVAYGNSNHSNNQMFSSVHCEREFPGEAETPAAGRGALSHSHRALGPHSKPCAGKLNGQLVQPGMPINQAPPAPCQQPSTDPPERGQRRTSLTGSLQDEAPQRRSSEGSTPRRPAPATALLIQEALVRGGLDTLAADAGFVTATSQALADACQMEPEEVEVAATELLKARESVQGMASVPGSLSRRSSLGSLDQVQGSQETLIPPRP
Sequence (P13806 27-960 partner limits assumed): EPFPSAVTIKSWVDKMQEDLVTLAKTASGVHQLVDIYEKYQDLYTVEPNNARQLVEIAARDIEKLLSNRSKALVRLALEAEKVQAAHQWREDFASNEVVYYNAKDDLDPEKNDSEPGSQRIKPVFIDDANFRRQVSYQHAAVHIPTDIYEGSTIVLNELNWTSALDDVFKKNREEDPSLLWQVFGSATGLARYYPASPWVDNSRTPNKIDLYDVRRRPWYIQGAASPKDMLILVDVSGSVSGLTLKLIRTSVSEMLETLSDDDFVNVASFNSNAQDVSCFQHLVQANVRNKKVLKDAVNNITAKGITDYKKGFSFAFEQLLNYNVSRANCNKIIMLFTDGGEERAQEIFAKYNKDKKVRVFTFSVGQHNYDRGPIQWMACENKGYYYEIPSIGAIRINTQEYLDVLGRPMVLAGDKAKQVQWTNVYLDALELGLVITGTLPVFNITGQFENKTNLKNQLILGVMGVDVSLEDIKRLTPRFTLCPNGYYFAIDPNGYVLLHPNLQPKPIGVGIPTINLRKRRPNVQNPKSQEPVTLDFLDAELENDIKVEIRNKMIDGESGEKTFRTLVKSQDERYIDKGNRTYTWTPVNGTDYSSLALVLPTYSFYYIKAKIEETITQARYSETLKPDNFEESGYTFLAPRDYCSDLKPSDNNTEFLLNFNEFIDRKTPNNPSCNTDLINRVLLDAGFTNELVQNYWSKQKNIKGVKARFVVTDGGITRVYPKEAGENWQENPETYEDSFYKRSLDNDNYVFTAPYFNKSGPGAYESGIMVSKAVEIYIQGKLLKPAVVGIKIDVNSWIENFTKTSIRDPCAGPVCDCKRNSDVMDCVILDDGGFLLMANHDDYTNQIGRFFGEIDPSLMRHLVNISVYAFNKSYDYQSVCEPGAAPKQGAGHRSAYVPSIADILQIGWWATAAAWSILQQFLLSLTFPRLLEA
Sequence (P13806 961-1106 partner limits assumed): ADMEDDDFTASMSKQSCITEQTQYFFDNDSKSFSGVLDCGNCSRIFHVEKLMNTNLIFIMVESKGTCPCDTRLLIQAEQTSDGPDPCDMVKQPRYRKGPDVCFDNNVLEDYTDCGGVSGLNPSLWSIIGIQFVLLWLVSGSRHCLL
Sequence (P19517 whole entry partner): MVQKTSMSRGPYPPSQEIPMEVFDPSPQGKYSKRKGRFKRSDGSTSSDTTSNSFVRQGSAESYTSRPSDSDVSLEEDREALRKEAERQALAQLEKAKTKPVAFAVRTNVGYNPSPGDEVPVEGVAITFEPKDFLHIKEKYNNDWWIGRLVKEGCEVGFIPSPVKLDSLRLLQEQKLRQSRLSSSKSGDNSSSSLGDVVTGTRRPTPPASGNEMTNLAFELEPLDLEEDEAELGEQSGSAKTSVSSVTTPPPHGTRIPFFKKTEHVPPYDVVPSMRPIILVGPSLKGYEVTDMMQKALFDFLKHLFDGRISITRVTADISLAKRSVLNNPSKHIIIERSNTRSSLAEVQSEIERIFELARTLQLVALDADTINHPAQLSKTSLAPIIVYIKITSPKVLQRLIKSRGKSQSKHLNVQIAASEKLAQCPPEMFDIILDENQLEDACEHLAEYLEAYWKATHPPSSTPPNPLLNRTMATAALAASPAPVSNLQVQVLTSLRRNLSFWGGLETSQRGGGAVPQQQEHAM
Sequence (P19518 whole entry partner): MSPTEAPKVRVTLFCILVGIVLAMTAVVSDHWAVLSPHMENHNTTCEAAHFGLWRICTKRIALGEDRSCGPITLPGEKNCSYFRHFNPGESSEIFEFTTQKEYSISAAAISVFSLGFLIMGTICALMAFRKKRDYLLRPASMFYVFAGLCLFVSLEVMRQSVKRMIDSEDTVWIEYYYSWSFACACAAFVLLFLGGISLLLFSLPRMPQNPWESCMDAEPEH
pIC50: −log10 of the molar value. Where a name gives a salt, the structure may show the parent alone.
QUANTITY_NAME: pIC50

COMPOUND: COc1ccc(CN2CCNCC2)c(OC)c1OC [Trimetazidine, 2 HCl, trimetazidine dihydrochloride, reference compound]
ASSAY_TARGET: type L calcium channels (Oryctolagus cuniculus, UniProt P07293)
RECORDED_RESULT: < 4.00

###

Measured pIC50, listed per entry for reference.
target: Beta adrenergic β; experiment: Binding to neurotransmitter receptors: beta adrenergic ([3H] DHA); conditions: read-out: K0.5
pIC50: −log10 of the molar value. Where a name gives a salt, the structure may show the parent alone.

COMPOUND: COc1ccc(CN2CCNCC2)c(OC)c1OC [Trimetazidine, 2 HCl, trimetazidine dihydrochloride, reference compound]
OPERATOR_SYMBOL: <
pIC50: 4.00
--
COMPOUND: C=CCc1ccccc1OCC(O)CNC(C)C (stereo not drawn)
OPERATOR_SYMBOL: =
pIC50: 8.68
--
COMPOUND: COc1ccc(CSC2CCN(CC=Cc3ccccc3)CC2)c(OC)c1OC
OPERATOR_SYMBOL: =
pIC50: 5.70

###

target: Dopamine D1 (Homo sapiens); assay: Binding to neurotransmitter receptors: D1 ([3H] SCH 23390); details: read-out: K0.5
Sequence (P21728 whole entry): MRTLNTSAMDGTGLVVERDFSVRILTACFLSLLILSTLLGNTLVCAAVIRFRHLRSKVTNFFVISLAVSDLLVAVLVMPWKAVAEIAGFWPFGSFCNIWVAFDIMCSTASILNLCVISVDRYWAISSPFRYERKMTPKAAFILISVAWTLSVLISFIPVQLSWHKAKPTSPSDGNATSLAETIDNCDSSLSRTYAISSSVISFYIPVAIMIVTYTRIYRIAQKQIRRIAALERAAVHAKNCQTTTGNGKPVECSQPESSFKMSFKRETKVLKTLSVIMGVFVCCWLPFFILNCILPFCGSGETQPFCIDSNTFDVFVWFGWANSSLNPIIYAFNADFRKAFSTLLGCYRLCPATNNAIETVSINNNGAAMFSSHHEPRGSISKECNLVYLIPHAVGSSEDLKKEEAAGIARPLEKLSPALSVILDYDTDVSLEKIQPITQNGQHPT
pIC50: −log10 of the molar value.
QUANTITY_NAME: pIC50

CHEMICAL_STRING: COc1ccc(CSC2CCN(CC=Cc3ccccc3)CC2)c(OC)c1OC
RECORDED_RESULT: 6.52
